System: SF-295 CNS
Assay: NCI tumour cell line growth inhibition, 48 h
Hi there, I'd appreciate the recorded TGI for every entry that follows.
Hi! Could you send only the number? It should be in µM, unit omitted.

Bench note: what TGI did `CO[C@H]1C(=O)[C@]2(C)[C@@H](OC)C[C@H]3OC[C@@]3(OC(C)=O)[C@H]2[C@H](OC(=O)c2ccccc2)[C@]2(O)C[C@H](OC(=O)[C@H](O)[C@@H](NC(=O)OC(C)(C)C)c3ccccc3)C(C)=C1C2(C)C` show? 23.9

Next: CCN(CC)CCCC(Nc1c2ccc(Cl)cc2nc2ccc(OC)cc12)c1ccc(Cl)cc1 (stereo unspecified) 2.77

Check `CC(C)(C)O/N=C/c1cc(NC(=S)c2ccccc2)ccc1Cl` too. 51.3

Please answer likewise for `O=[N+]([O-])c1cccnc1S(=O)(=O)c1ccccc1` 32.5

Subsequent entry: `C/C(CCN(C)C)=N/O` 81.5

`CCc1ccc(Oc2c(-c3ccc(OCc4ccc(Cl)cc4)cc3O)nn(C)c2C(F)(F)F)cc1` , same question. 2.51

Next: `CCOC(=O)c1cn(C)c2c(OC)c3ccccc3c(OC)c2c1=O` 55.2

Please do the same for `N#CN1CC[C@H](C(=O)Nc2ncc(-c3ccccc3)s2)C1` as well. 6.44

Record: `O=C1Nc2ccc(-c3cccnc3)cc2/C1=C/c1cc(Br)c(O)c(Br)c1` 13.7

====

Exercise: for every item that follows, state its recorded GI50.
System: UACC-62 melanoma
Test: NCI tumour cell line growth inhibition, 48 h

May I ask what GI50 has been recorded for `Cn1cc(-c2ccc3ncc(-c4ccc(CC(=O)Nc5cc(C(C)(C)C)nn5C)cc4)cc3c2)cn1` ? 1.26 µM

Do the same for `O=C1c2cccc3c(N4CCOCC4)ccc(c23)C(=O)N1CCN1CCN(CCCCCN2CCN(CCN3C(=O)c4cccc5c(N6CCOCC6)ccc(c45)C3=O)CC2)CC1` please 77.6 µM

Subsequent entry: OCC1OC(OC2(CO)OC(CO)C(O)C2O)C(O)C(O)C1O (stereo not given) > 100 µM

Repeat for the following compound: `CCCCCCCCCCCCCC(=O)O[C@H]1CC[C@H](NC(=O)[C@H](OC)[C@H](O)[C@@H](O)[C@H](O)/C=C/C(C)C)C(=O)N(C)C1` 0.00238 µM

Another: `CCOC(=O)c1cn(C)c2c(OC)c3ccccc3c(OC)c2c1=O` 19.5 µM

====

Please go through the items and note down their TGI.
System: NCI-H23 lung
Assay: NCI tumour cell line growth inhibition, 48 h

Please look up its TGI: `NC(=O)CSc1nc2ccccc2c(=O)n1N` > 100 µM

How about this compound: `O=C(OCCN=c1c2ccccc2ccc2ccccc12)c1cc([N+](=O)[O-])cc([N+](=O)[O-])c1` > 100 µM

And what about the compound `Cc1cccc2c1nc1n2C(=O)c2ccccc2-1` ? > 100 µM

Same for `C/C(=N\NC(=S)N1CCC1)c1ccccn1` 39.7 µM

// repeat for CCc1c(OC(C)=O)c2c(NC3OC(COC(C)=O)C(OC(C)=O)C(OC(C)=O)C3OC(C)=O)nc(SC)nc2oc1=O (stereo not given) and report > 100 µM

====

Test system: SK-MEL-2 melanoma
Assay: NCI tumour cell line growth inhibition, 48 h
Classify as follows. Reported TGI greater than or equal to 20 µM: True. Reported TGI below: False.

Would you say `Cc1ccc(-n2c3nc(=O)n(C)c(=O)c-3nc3ccccc32)c(C)c1` shows TGI at minimum 20 µM? True

Try this compound too: `CCc1ccc(Oc2c(-c3ccc(OCc4ccc(Cl)cc4)cc3O)nn(C)c2C(F)(F)F)cc1` False

Let us now turn to COCOC1CCCC[C@@]1(OCCOCCO[C@@]1(c2ccccc2)CCCC[C@H]1OCOC)c1ccccc1 (some centres undefined) True

Same again, this time with CCCCCCCCCC1CC(=O)OC23CCCC(=O)C12O3 (centres undefined) True

Follow-up entry: `CC(=O)C1(C(=O)C(=[N+]=[N-])S(=O)(=O)c2ccccc2)CC1` True

Similarly, CCN1C(=O)N(CC)C2C1NC(=S)N2/N=C/C=C/c1ccccc1 (centres undefined) ? True

Would you kindly repeat that for `CC1(C)C(=O)/C(=C/c2ccccc2)C(C)(C)C1(C)C` ? True

Input CC(=O)c1c(-c2ccc(Cl)cc2)c(C#N)c(=S)n(C2OC(CO)C(O)C(O)C2O)c1C (centres undefined) True

Same for `Cc1nc2sccn2c1C(=O)NNC(N)=S` True

Now the same for `[C-]#[O+].[Cl][Sn]([Cl])[Cl].[Cl][Sn]([Cl])[Cl].[Pt].c1cnc2c(c1)ccc1cccnc12` False

Record: `C/C(=N/NC(=S)Nc1ccc(C)cc1)c1ccccn1` False

Also, `OCCN1CCN(c2nc(N3CCCC3)c3nc(Cl)c(NCc4ccccc4)nc3n2)CC1` please. False

Next: `CCNC(=S)N/N=C(/C)c1cccc(/C(C)=N\NC(=S)NCC)n1` True

Then `Cc1cc(-c2ccc(N=Nc3ccc4c(S(=O)(=O)O)cc(S(=O)(=O)O)c(N)c4c3O)c(C)c2)ccc1N=Nc1ccc2c(S(=O)(=O)O)cc(S(=O)(=O)O)c(N)c2c1O` ? True

Now give it for `O=C(O)c1ccccc1C(=O)c1ccco1` too. True

Ok, now CCCC(O)[C@@]1(CC)CC(C)C(O)(C2(C)C[C@H](C)[C@@H](C(CC)C(=O)C(C)[C@@H](O)[C@H](C)C3OC(O)(C(CC)C(=O)O)[C@@H](C)C(O)C3CC)O2)O1 (some centres undefined) False

Same for `COC(=O)[C@]12CC[C@@H](C)[C@H](C)[C@@H]1C1=CC[C@@H]3[C@@]4(C)C(C=O)=C[C@@](C)(COS(C)(=O)=O)C4=CC[C@@]3(C)[C@]1(C)CC2` False

Same read-out for `COc1ccc(-c2cnc(-c3ccncc3-c3cccc(OC)c3)o2)cc1` ? False

Also, `CNC(=O)OCc1nc(SSc2nc(COC(=O)NC)c(COC(=O)NC)n2C)n(C)c1COC(=O)NC` please. True

Repeat for the following compound: `CC(C)(C)OC(=O)N[C@H]1CC(=O)c2ccccc2N(CC(=O)O)C1=O` True

Next entry: `C#COc1cccc(Nc2ncnc3cc(NC(=O)[C@@H](C)Cl)ccc23)c1` True

Moving on to `O=[N+]([O-])c1cccnc1S(=O)(=O)c1ccccc1` True

Subsequent entry: CCOC(=O)C1C(c2ccc(Br)cc2)N(Cc2ccccc2)C(c2ccc(Br)cc2)C(C(=O)OC)S1(=O)=O (centres undefined) True

Thanks! And `NC(=O)CSc1nc2ccccc2c(=O)n1N` ? True

Next compound up: `O=C(N/N=C/c1ccccc1)c1c(F)c(F)c(F)c(F)c1F` True

Would you mind doing `COc1ccc(O[C@H](CO)C[C@@H]2COC(C)(C)O2)cc1` as well? True

`CN(C)CCNC(=O)Nc1ccc(N(C)c2ccnc(Nc3ccc(CS(C)(=O)=O)cc3)n2)cc1` , same question. True

Proceed to `COC(=O)c1ccc(NC(N)=NCCC(C)(C)c2ccc(C(F)(F)F)cc2)nc1` False

Repeat for the following compound: CC(C)C(NCc1c2ccccc2[n+](C)c2ccccc12)C(=O)O (centres undefined) False

Could you do the same for Cc1cccc(C)c1NC(=O)CCCC(=O)C(C#N)c1ccccc1 (centres undefined) , please? True

# repeat for `CC(=O)Nc1cccc(C#Cc2cncnc2Nc2ccc(OCc3cccc(F)c3)c(Cl)c2)c1` True

// next record `O=c1[nH]c(=S)[nH]c(O)c1/C=C1\C=Nc2ccccc21` True

Check `COCc1cc2c(s1)C(=O)C1=C(C2=O)C2(C=C(Br)C(=O)C(Br)=C2)CCN1` too. False

Do the same for `CC(=O)O[C@H]1CC[C@@H](OC(C)=O)[C@H]2[C@H](O)[C@H](O)[C@@H]1n1c(=O)n(-c3ccccc3)c(=O)n12` please True

Cool, now `C/C(=N\NC(=S)N1CCC1)c1ccccn1` True

What about this compound? O=C1/C(=C\c2cccc(Oc3ccccc3)c2)SC(c2ccccc2)N1c1cc(Cl)ccc1Cl (centres undefined) True

Then what about the compound `C[n+]1c2ccccc2n2c3ccccc3c(NCCCn3ccnc3)c(C#N)c21` ? False

Now consider C[C@H]1CCC/C=C/[C@@H]2C[C@H](OC3OC(CO)C(O)C(O)C3O)C[C@H]2[C@H](O)/C=C/C(=O)O1 (some centres undefined) and answer again. True

====

System: SK-MEL-5 melanoma
Assay: NCI tumour cell line growth inhibition, 48 h; in the data active = GI50 below about 0.43 µM; inactive = the rest
One label from this list, please: y for active, n for inactive

Hi, do you know how `Cc1ccc(C(=O)Nc2ccc(Oc3cc4cnn(C)c4cc3-c3cn[nH]c3)c(F)c2)c(=O)n1-c1ccc(F)cc1` came out in this test? n

Now consider `Cn1cc(-c2ccc3ncc(-c4ccc(CC(=O)Nc5cc(C(C)(C)C)nn5C)cc4)cc3c2)cn1` and answer again. n

Same question for `N#CN1CC[C@H](C(=O)Nc2ncc(-c3ccccc3)s2)C1` please. n

// query: `COc1cccc(-c2cc(=O)c3cc(N4CCN(C)CC4)ccc3[nH]2)c1` n

How about this compound: `C/C(=N\NC(=S)N1CCC1)c1ccccn1` y

Similarly, `Cc1ccc2ccc3c4ccccc4ccc3c2c1` ? n

Data origin: PubChem BioAssay (NCI)
